target-or-test-system: T1, Human ADAM10 from R & D Systems (human, UniProt O14672 214-672)
T1 sequence (looked up): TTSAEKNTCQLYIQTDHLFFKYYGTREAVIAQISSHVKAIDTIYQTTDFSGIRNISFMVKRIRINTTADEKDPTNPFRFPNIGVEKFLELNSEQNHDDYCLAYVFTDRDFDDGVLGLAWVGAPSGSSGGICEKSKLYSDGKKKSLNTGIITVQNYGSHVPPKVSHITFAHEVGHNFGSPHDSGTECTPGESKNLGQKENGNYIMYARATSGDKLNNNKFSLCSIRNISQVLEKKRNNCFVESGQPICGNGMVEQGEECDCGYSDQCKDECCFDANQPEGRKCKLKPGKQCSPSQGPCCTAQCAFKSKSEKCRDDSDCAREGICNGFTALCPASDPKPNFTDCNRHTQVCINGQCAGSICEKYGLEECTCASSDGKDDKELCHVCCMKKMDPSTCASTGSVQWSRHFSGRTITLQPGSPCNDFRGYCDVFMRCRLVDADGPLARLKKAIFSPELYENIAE
procedure-text: cell-based or functional assay
measured-metric: IC50 (nM), inhibition of ADAM10 cleavage of the fluorescent substrate PEPDAB064
Unit nM implied. Number only.

Look up IC50 (nM), inhibition of ADAM10 cleavage of the fluorescent substrate PEPDAB064 for this binder: SEQ ID NO: 64 (SEQ ID NO: 2 with R29K; R55K; C151S) (peptide) NPLNKYIRHYEGLSYNVDSLHQKHQRAKKAVSHEDQFLLLDFHAHGRQFNLRMKKDTSLFSDEFKVETSNKVLDYDTSHIYTGHIYGEEGSFSHGSVIDGRFEGFIKTRGGTFYIEPAERYIKDRILPFHSVIYHEDDINYPHKYGPQGGSADHSVFERMRKYQMTGVEEGARAHPEKHAASSGPELLRK 83
